Data provenance: ChEMBL document CHEMBL1201862

- System: OVCAR-8
- test-protocol: NCI tumour cell line growth inhibition, 48 h
Activity calls are given as the source filed them. Rule as the data show it: active = GI50 up to about 1.1 µM and inactive = higher.
measured-property: GI50

Example molecules with recorded GI50:
[
  {
    "molecule": "NCC1CCN(c2nc3ccccc3c3c2CCCC3)CC1",
    "value-observed": "17.2 µM (inactive)"
  },
  {
    "molecule": "O=[N+]([O-])c1ccc2sc(/C=N/c3ccc(O)cc3)cc2c1",
    "value-observed": "32.2 µM (inactive)"
  },
  {
    "molecule": "Cc1c(/N=N/c2ccc([N+](=O)[O-])cc2)nc2scc(-c3ccccc3)n12",
    "value-observed": "71.6 µM (inactive)"
  },
  {
    "molecule": "Cc1cc(C)nc(NS(=O)(=O)c2ccc(NN=c3c4ccccc4n(C)c4ccccc34)cc2)n1",
    "value-observed": "30.1 µM (inactive)"
  },
  {
    "molecule": "CC(=O)Nc1c(C)ccc2c1C(=O)c1ccccc1C2=O",
    "value-observed": "82.6 µM (inactive)"
  }
]

Lookup: GI50 / OVCAR-8 / `C(=N\Nc1nnc2c(n1)[nH]c1ccccc12)/c1cccnc1` > 100 µM (inactive)

`O=[N+]([O-])c1ccc2sc(/C=N/c3cnccn3)cc2c1` , same question. 45.4 µM (inactive)

What about this molecule? Cc1ccc([N+](=O)[O-])cc1S(=O)(=O)Nc1ccc(C2=NOC(c3cccs3)C2)cc1 (stereo unspecified) 22.9 µM (inactive)

Note, next up: `COCn1c(=O)n(C)c(=O)c2c1nc1c(c(=O)n(C)c(=O)n1COC)[n+]2[O-]` 5.7 µM (inactive)

And the next one, N#CC1=C(N)Oc2c(ccc3cccnc23)C1c1ccccc1 (stereo unspecified) ? 3.38 µM (inactive)

`O=C(O)c1ccc2c(O)c(O)ccc2c1` , same question. 20 µM (inactive)

----------
- System: PC-3
- test-protocol: NCI tumour cell line growth inhibition, 48 h
Active and inactive are the calls of the source. No stated cut-off is given here; in the data, active = GI50 up to about 1.1 µM and inactive = higher.
measured-property: GI50

[
  {
    "compound": "COC(=O)[C@@H]1C[C@H]2[C@H](c3ccccc3Br)[C@@H](OC(C)=O)[C@@H](OCc3ccccc3)ON2O1",
    "value-observed": "> 100 µM (inactive)"
  },
  {
    "compound": "CNc1nc(N(C)C)nc(N(C)C)n1",
    "value-observed": "1580 µM (inactive)"
  },
  {
    "compound": "CCOC(=O)c1cn(CC)c2ccc3ccsc3c2c1=O",
    "value-observed": "> 100 µM (inactive)"
  },
  {
    "compound": "COC(=O)[C@@H]1Cc2ccc(OC)c(c2)OCCC(=O)N1",
    "value-observed": "> 100 µM (inactive)"
  },
  {
    "compound": "C(=C\\c1ccccc1)/Cn1nc(-c2ccccc2)nc1-c1cnccn1",
    "value-observed": "> 100 µM (inactive)"
  }
]

GET /values?readout=GI50&item= `Cc1ccc(C(=O)/C=C2\Nc3ccccc3S\C2=N\CS(=O)(=O)c2ccc(C)cc2)cc1` > 10 µM (inactive)

// next record COC(=O)C1(Cc2ccccc2)Cc2c(C)ccc(C)c2C1=O (stereo unspecified) 26.3 µM (inactive)

Also need `Cn1c(=O)c2nc(CCCCC(=O)O)[nH]c2n(C)c1=O` , thanks. > 100 µM (inactive)

Also O=C1CC2(CCC(O)(c3cccs3)C(C(=O)c3cccs3)C2)C(=O)c2ccccc2N1 (stereo unspecified) ? 51.8 µM (inactive)

Entry to check: `CCS(=O)(=O)CCn1c(=O)c2c(ncn2C)n(C)c1=O` > 100 µM (inactive)

Repeat for the following compound: `O=C1C(O)=C(C(CCc2ccccc2)C2=C(O)C(=O)c3ccccc3C2=O)C(=O)c2ccccc21` 68.7 µM (inactive)
